read-out: Thyroid Hormone Responsive (THRSP), THRSP (gene 7069); experiment: LTEA_HepaRG_THRSP: Life Technologies and Expression Analysis (LTEA) Assay for Thyroid Hormone Responsive (THRSP) using HepaRG (AID 2283536); details: mRNA level, 48 h; actives raise or lower the signal
The source made the active and inactive calls. The calls were made as follows: active = hit-call score of the fitted dose curve at least 0.9, where 1 is the maximum; inactive = score below 0.9.
Outcomes: active, inactive

compound | classAssignment
CC(C)=CCCC(C)CCO (stereo unspecified) | inactive
CC(C)CCCCCCOC(=O)c1ccc(C(=O)OCCCCCCC(C)C)c(C(=O)OCCCCCCC(C)C)c1 | inactive
CC(C)CC(C)(O)C#CC(C)(O)CC(C)C (stereo unspecified) | inactive
Clc1nc(Cl)c(Cl)c(Cl)c1Cl | inactive
Fc1ccccc1[C@@H](F)COC1CCC(Nc2ncnc3[nH]ncc23)CC1 (stereo partly specified) | inactive
O=c1[nH]c2ccc(S(=O)CCN3CCC(Cc4ccc(F)cc4)CC3)cc2o1 (stereo unspecified) | active
Nc1ccc(Nc2ccccc2)cc1 | inactive
CCOc1cccc(-n2cc(C(=O)N3CCN(c4cc(C(=O)O)c5ccccc5c4)CC3)nc2-c2ccc(C)cc2)c1 | active
CC(C)CCO | inactive
CCCCCCCCCCCCCCCO | inactive
CC(O)CN(CCN(CC(C)O)CC(C)O)CC(C)O (stereo unspecified) | inactive
CCC(C)(C)C(=O)O[C@H]1C[C@@H](C)C=C2C=C[C@H](C)[C@H](CC[C@@H]3C[C@@H](O)CC(=O)O3)[C@H]21 | active
COC(=O)c1c(Cl)c(Cl)c(C(=O)OC)c(Cl)c1Cl | inactive
COCCOCCOCCOC | inactive
O=C(O)CCN(C1(C(=O)NO)CCCC1)S(=O)(=O)c1ccc(Oc2ccc(F)cc2)cc1 | inactive
Nc1nc2ncc(CNc3ccc(C(=O)N[C@@H](CCC(=O)O)C(=O)O)cc3)nc2c(=O)[nH]1 | inactive
CCc1cc(SCc2sc(-c3ccc(C(F)(F)F)cc3)nc2CN2CCN(c3ccc(OC)cc3)CC2)ccc1OCC(=O)O | inactive
O=C(O)c1cccc(N(Cc2cccnc2)c2ccc(OC(F)F)c(OC(F)F)c2)c1 | inactive
CN(C)c1ccc(Cc2ccc(N(C)C)cc2)cc1 | active
CNS(=O)(=O)c1cc(C(=O)N2CCC(CCN3C4CCC3CC(n3c(C)nc5ccccc53)C4)(c3cccc(F)c3)CC2)c(Cl)cc1F (stereo unspecified) | inactive
Cc1ccc(C)c(O)c1 | inactive
